Values compiled from patent US12552800B2.

target or test system: PD brain-derived a-syn aggregates (Homo sapiens, UniProt P37840)
Construct: from tissue; host or cells: human PD donor brain, sarkosyl-insoluble 100,000 x g pellet
method summary: Micro-radiobinding competition assay against Example-1 [^3H-1] (Table 8)
Type: binding
conditions used: 1 μM non-radiolabelled example compound vs Example-1 [^3H-1] ligand; human PD brain-derived a-syn aggregates

mol	Competition at 1 μM (%)
Cl.O=C1c2cn(-c3ccc(N4CC[C@H](F)C4)nc3)nc2CN1c1cnccn1	100
O=C1c2cn(-c3ccc(N4CC[C@H](F)C4)nc3)nc2CN1c1cccnc1O	36
O=C1c2cn(-c3ccc(N4CC[C@@H](F)C4)nc3)nc2CN1c1ccc(O)cn1	110
O=C1c2cn(-c3ccc(N4CCCC4)nc3)nc2CN1c1cnn(CCF)c1	74
O=C1c2cn(-c3ccc(N4CC[C@H](F)C4)nc3)nc2CN1c1cc(O)ccn1	102
O=C1c2cn(-c3ccc(N4CCOCC4)nc3)nc2CN1c1cnc(F)cn1	99
O=C1c2cn(-c3ccc(N4CC[C@H](F)C4)nc3)nc2CN1c1ccnnc1	83
Cn1cc(N2Cc3nn(-c4ccc(N5CCC[C@H](F)C5)nc4)cc3C2=O)cn1	84
Cl.O=C1c2cn(-c3ccc(N4CCCC4)nc3)nc2CN1c1cnc(F)cn1	91
O=C1c2cn(-c3ccc(N4CC[C@H](F)C4)nc3)nc2CN1c1ccccc1	90
